Data provenance is patent US11434205B2.

System: rats
Settings: continuous tail vein infusion at 2×MIR, LORR maintained 1 hour, Table D4
Description: Pharmacological Effects of the Compounds on Continuous Infusion in Rats Adult male Sprague-Dawley rats with body weight ranging from 250 to 300 gm were selected for continuous infusion test. […] Time to recovery of righting reflex from stopping infusion, and time to fully awake from stopping infusion were recorded.
property: Types and incidence of adverse reactions

[[record]]
chemicalstructure = "C=C=CC1(OC(=O)c2cncn2[C@H](C)c2ccccc2)CCC1"
endpointvalue = "Tremor (4/6)"

[[record]]
chemicalstructure = "C=CC#CC(C)(C)OC(=O)c1cncn1[C@H](C)c1ccccc1"
endpointvalue = "Tremor (4/6)"


* * *

test system: rats; assay: Pharmacological characteristics at equivalent doses (2×ED50) in rats; details: 2×ED50, tail vein, time of LORR
property: Onset time (min)
Expressed in min, but write only the number.

[[record]]
molecule = "C=CC#CC(C)OC(=O)c1cncn1[C@H](C)c1ccccc1 (stereo partly drawn) [Compound D59]"
property = "Onset time"
endpointvalue = 0.15


Input line: Please give the measured Onset time for this molecule: C[C@H](c1ccccc1)n1cnc(F)c1C(=O)OC1(C)COC1 [Compound E38]
Output line: 0.25

Input line: Please give the measured Onset time for this molecule: C[C@H](c1ccccc1)n1c(Cl)nc(Cl)c1C(=O)OC1CSC1 [Compound E133]
Output line: 0.25

Input line: Please give the measured Onset time for this molecule: CC(=O)CCOC(=O)c1cncn1[C@H](C)c1ccccc1 [Compound C7]
Output line: 0.15

Input line: Please give the measured Onset time for this molecule: C[C@H](c1ccccc1)n1cnc(F)c1C(=O)OCC1CC1 [Compound E8]
Output line: 0.38

Input line: Please give the measured Onset time for this molecule: C=CC#CC(C)(C)OC(=O)c1cncn1[C@H](C)c1ccccc1 [Compound D37]
Output line: 0.24

Input line: Please give the measured Onset time for this molecule: C#CC1(OC(=O)c2cncn2[C@H](C)c2ccccc2)CSC1 [Compound D27]
Output line: 0.32

Input line: Please give the measured Onset time for this molecule: C[C@H](c1ccccc1)n1cncc1C(=O)OC1(C2CO2)CCC1 (stereo partly drawn) [Compound A20]
Output line: 0.11

Input line: Please give the measured Onset time for this molecule: CCC(C)(C)OC(=O)c1cncn1[C@H](C)c1ccccc1 [Compound C19]
Output line: 0.45
